Organism: Rattus norvegicus
Assay: Open TG-GATES - Regimen: Daily Repeat
Type: toxicity, organism-based, Sprague-Dawley
Design: regimen Daily Repeat, gender Male, age 6 weeks
Details: in vivo, po, 300 mg/kg, […], tissue Blood, route gavage, dose level Middle, time 14 day
The following molecules are shown together with reported Hb values.

[
  {
    "smiles_repr": "CNC(=C[N+](=O)[O-])NCCSCc1ccc(CN(C)C)o1",
    "Hb (g/dL)": 14.6
  },
  {
    "smiles_repr": "O=C(OC[C@H]1O[C@@H](OC(=O)c2cc(O)c(O)c(OC(=O)c3cc(O)c(O)c(O)c3)c2)[C@H](OC(=O)c2cc(O)c(O)c(OC(=O)c3cc(O)c(O)c(O)c3)c2)[C@@H](OC(=O)c2cc(O)c(O)c(OC(=O)c3cc(O)c(O)c(O)c3)c2)[C@@H]1OC(=O)c1cc(O)c(O)c(OC(=O)c2cc(O)c(O)c(O)c2)c1)c1cc(O)c(O)c(OC(=O)c2cc(O)c(O)c(O)c2)c1",
    "Hb (g/dL)": 13.7
  },
  {
    "smiles_repr": "CN/C(=N/CCSCc1nc[nH]c1C)NC#N",
    "Hb (g/dL)": 14.2
  },
  {
    "smiles_repr": "Cc1nnc2n1-c1ccc(Cl)cc1C(c1ccccc1Cl)=NC2",
    "Hb (g/dL)": 14.1
  },
  {
    "smiles_repr": "COC(=O)C1=C(C)NC(C)=C(C(=O)OC)C1c1ccccc1[N+](=O)[O-]",
    "Hb (g/dL)": 14.8
  }
]
